- Assay info: Stability in human hepatocytes
- Type: in vitro ADME
Counter-ions that a name gives are not always drawn.
Measurement name: hepatocyte CLint (µL/min/1e6 cells)
# output: bare number, implied unit µL/min/1e6 cells

Challenge: Field request: hepatocyte CLint | item: CN(C)CCNC(=O)c1ccc(-c2ccc(-c3ccc(Cl)cc3)n2-c2ccccc2C(F)(F)F)cc1 [Example 33, Hydrochloride]
Response given: 10

* * *

# reported GI50; entries follow
- Test system: HCT116 cells
Counter-ions that a name gives are not always drawn.
# output: bare number, implied unit nM

Worked cases, answers included:
> print(dat)
                                   compound  measurement.name  result
1  CN(C)CCCNC(=O)c1ccc(-c2ccc(-c3ccc(Cl)cc3)n2-c2cccc(C(F)(F)F)c2)cc1 [Example 78, hydrochloride]              GI50    2130
2  CN(C)CCCNC(=O)c1ccc(-c2ccc(-c3ccc(Cl)cn3)n2-c2ccccc2C(F)(F)F)cc1 [Example 76, hydrochloride]              GI50     240
3  CN(C)CCNC(=O)c1ccc(-n2ncc(-c3ccc(F)cc3)c2-c2ccccc2C(F)(F)F)cc1 [Example 106, hydrochloride]              GI50      80
4  CN(C)CCNC(=O)c1ccc(-c2ccc(-c3ccc(Cl)cc3)n2-c2ccc(F)cc2C(F)(F)F)cc1 [Example 97, hydrochloride]              GI50      20

Challenge: Query GI50 on HCT116 cells for CN(C)CCNC(=O)c1ccc(-c2ccc(-c3ccc(C#N)nc3)n2-c2ccccc2C(F)(F)F)cc1 [Example 66, hydrochloride]
Response given: 890

Challenge: Query GI50 on HCT116 cells for NCCNC(=O)c1ccc(-c2ccc(-c3ccc(Cl)cc3)n2-c2ccccc2C(F)(F)F)cc1 [Example 94, hydrochloride]
Response given: 50
